Tested on: IGROV1 ovarian
METHOD_NOTES: NCI-60 one-dose screen, 48 h (100 = growth as untreated, 0 = no growth, -100 = all killed)
CONDITION_SUMMARY: 10 µM unless noted
This is part of a sample that, as a whole, favours compounds with a hit. Of some 83,000 tested, about 20% had one in any assay.
PROPERTY_NAME: growth (%)
Numbers only, in %.

Worked cases, answers included:
COMPOUND: COc1cc(-c2ccc3ncnc(NC(C)c4ccccc4)c3c2)cnc1OC (centres undefined)
UNIT_LABEL: %
growth: -23.2

COMPOUND: Nc1c(C(=O)Nc2ccc(Cl)cc2)sc2nc(-c3cnccn3)cc(-c3cccs3)c12
UNIT_LABEL: %
growth: 74.2

COMPOUND: Clc1ccc2c(OCCCN3CCOCC3)c3oc4ccccc4c3nc2c1
UNIT_LABEL: %
growth: 19.7

COMPOUND: CC(C)(C)Nc1nc2c(OCCc3ccccc3)cccn2c1-c1cccc(F)c1
UNIT_LABEL: %
growth: 10.1

COMPOUND: N#Cc1nc(-c2ccccc2)oc1N1CC[C@@H](CO)C1
UNIT_LABEL: %
growth: 94.5

// for each compound in input: emit growth
1. COc1cc(-c2nc3ccc(-c4nnc(SCC(=O)Nc5ccc(C(=O)/C=C/c6ccc(Cl)cc6)cc5)o4)cc3[nH]2)cc(OC)c1OC
2. CN(C)CCCOc1c2ccc(Cl)cc2nc2c1oc1ccccc12
3. COc1ccc(-c2csc(N/N=C/c3c(-c4ccc(S(C)(=O)=O)cc4)nc4ccccn34)n2)cc1
4. OC1CCN(CCCOc2c3ccccc3nc3c2oc2ccccc23)CC1
5. CS(=O)(=O)c1ccc(-n2cc(/C=C/C(=O)c3ccc(NC(=O)CO[N+](=O)[O-])cc3)c(-c3ccc(Cl)cc3)n2)cc1

Result block:
81.6
-8.93
115
-37.2
94.4

// for each compound in input: emit growth
1. C[C@@H]1CN(c2ccc3ncc(C#Cc4cncc(C(=O)Nc5ccc(CN6CCN(C)CC6)c(C(F)(F)F)c5)c4)n3n2)C[C@H](C)O1
2. N#Cc1nc(-c2ccccc2)oc1S(N)(=O)=O
3. CS(=O)(=O)c1ccc(-c2nc3ccccn3c2-c2nc3ccc([N+](=O)[O-])cc3[nH]2)cc1
4. Cc1cccc2sc(/N=C(\N)C(Cl)(Cl)Cl)nc12
5. Cc1nc(-c2cc3ccccc3oc2=O)ccc1C(=O)/C=C/c1ccc(N2CCOCC2)cc1
6. COc1cc2cc(Oc3ccc(NC(=O)c4cccc(C(F)(F)F)c4)cc3)c(C)nc2cc1OCCN1CCCCC1

Result block:
1: -5.72; 2: 49.2; 3: 81; 4: 98.3; 5: 82.6; 6: 81.5
